Test: self-splicing fitness, log relative to wild type (ln ratio); higher = more splicing; Tetrahymena group I intron in knt gene, E. coli kanamycin selection, DiMSum; sequences stand for … in CUCUCU…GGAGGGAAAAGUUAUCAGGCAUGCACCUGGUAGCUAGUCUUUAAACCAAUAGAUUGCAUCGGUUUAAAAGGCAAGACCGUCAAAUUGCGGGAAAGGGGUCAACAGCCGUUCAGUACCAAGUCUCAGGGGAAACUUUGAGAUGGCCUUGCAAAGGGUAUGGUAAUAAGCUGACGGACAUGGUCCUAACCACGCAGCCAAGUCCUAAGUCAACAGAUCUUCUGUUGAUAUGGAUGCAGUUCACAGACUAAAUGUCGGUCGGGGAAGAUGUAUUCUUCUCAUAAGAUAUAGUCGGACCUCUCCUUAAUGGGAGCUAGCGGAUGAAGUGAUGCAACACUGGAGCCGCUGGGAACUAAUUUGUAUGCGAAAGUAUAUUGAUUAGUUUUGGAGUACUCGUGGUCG;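 also: selection with 25 µg/mL kanamycin versus none on LB agar overnight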
Conditions: 30 °C
We'd kindly ask you to apply these self-splicing fitness (ln) classes: low: < -3; intermediate: ≥ -3 and < -2; high: ≥ -2

In: Into which category would you place UAUAAGCAAUAUUACGUGGU ?
Out: low

In: Into which category would you place AGGCAGCAAUAUUACGUUUA ?
Out: high

In: Into which category would you place GCGAAGCAAUAUUACGCGGU ?
Out: intermediate

In: Into which category would you place GAGGAGCAAUAUUACGCUCA ?
Out: high

In: Into which category would you place ACUUAGCAAUAUUACGACUU ?
Out: high

In: Into which category would you place AAACAGCAAUAUUACGUCGG ?
Out: intermediate

In: Into which category would you place AACAAGCAAUAUUACGAUUC ?
Out: high

In: Into which category would you place ACUCAGCAAUAUUACGCACC ?
Out: high

In: Into which category would you place UAUAAGCAAUAUUACGUACU ?
Out: high

In: Into which category would you place GUUGAGCAAUAUUACGCGCG ?
Out: high

In: Into which category would you place GAUAAGCAAUAUUACGCGUC ?
Out: low

In: Into which category would you place AUGCAGCAAUAUUACGCUGU ?
Out: low

In: Into which category would you place AUGAAGCAAUAUUACGGACU ?
Out: high

In: Into which category would you place GUAUAGCAAUAUUACGCCAG ?
Out: low

In: Into which category would you place UGCAAGCAAUAUUACGCGGG ?
Out: low

In: Into which category would you place UGGCAGCAAUAUUACGCCCC ?
Out: high

In: Into which category would you place UCUCAGCAAUAUUACGCUCG ?
Out: low

In: Into which category would you place UGGGAGCAAUAUUACGUUGA ?
Out: low

In: Into which category would you place GUCCAGCAAUAUUACGCGCG ?
Out: high

In: Into which category would you place GUAAAGCAAUAUUACGGGAA ?
Out: intermediate

In: Into which category would you place CUUAAGCAAUAUUACGCGGU ?
Out: intermediate

In: Into which category would you place CCCCAGCAAUAUUACGCGUA ?
Out: low

In: Into which category would you place AACAAGCAAUAUUACGAAAC ?
Out: low

In: Into which category would you place UUACAGCAAUAUUACGCGCC ?
Out: intermediate

In: Into which category would you place UCGCAGCAAUAUUACGAAAA ?
Out: low

In: Into which category would you place AUCAAGCAAUAUUACGGGCC ?
Out: intermediate

In: Into which category would you place CAAAAGCAAUAUUACGUCGC ?
Out: low

In: Into which category would you place UUAUAGCAAUAUUACGAGCG ?
Out: high

In: Into which category would you place CUCUAGCAAUAUUACGUGGA ?
Out: low

In: Into which category would you place AAGUAGCAAUAUUACGUUCC ?
Out: high

In: Into which category would you place CGGUAGCAAUAUUACGACGU ?
Out: high

---

Assay: self-splicing fitness, log relative to wild type (ln ratio); higher = more splicing; Tetrahymena group I intron in knt gene, E. coli kanamycin selection, DiMSum; sequences stand for … in CUCUCU…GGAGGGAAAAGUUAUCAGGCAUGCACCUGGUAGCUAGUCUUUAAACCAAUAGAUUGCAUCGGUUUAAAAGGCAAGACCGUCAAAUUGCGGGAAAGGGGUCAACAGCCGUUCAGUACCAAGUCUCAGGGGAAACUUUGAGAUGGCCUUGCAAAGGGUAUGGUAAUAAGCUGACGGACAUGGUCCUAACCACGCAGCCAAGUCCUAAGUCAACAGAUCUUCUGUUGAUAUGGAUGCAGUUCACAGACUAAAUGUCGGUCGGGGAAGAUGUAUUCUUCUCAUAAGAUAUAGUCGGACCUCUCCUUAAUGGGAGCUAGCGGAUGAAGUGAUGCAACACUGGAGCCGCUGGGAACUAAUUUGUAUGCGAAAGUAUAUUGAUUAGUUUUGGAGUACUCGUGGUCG
Conditions: 37 °C
readout.label: self-splicing fitness (ln)
// no unit, no text: just the number

The recorded self-splicing fitness (ln) for GGCCAGCAAUAUUACGGCUA is -0.0906

The recorded self-splicing fitness (ln) for CCGCAGCAAUAUUACGUAGU is -2.88

The recorded self-splicing fitness (ln) for AGGCAGCAAUAUUACGGGCU is -1.51

The recorded self-splicing fitness (ln) for GUGCAGCAAUAUUACGCUCA is -0.388

The recorded self-splicing fitness (ln) for AAGGAGCAAUAUUACGACGA is -0.382

The recorded self-splicing fitness (ln) for CAGCAGCAAUAUUACGAUCU is -2.38

The recorded self-splicing fitness (ln) for GAUGAGCAAUAUUACGCCUC is -1.01

The recorded self-splicing fitness (ln) for UUCGAGCAAUAUUACGUAAA is -1.07

The recorded self-splicing fitness (ln) for UGGUAGCAAUAUUACGGACA is 0.135

The recorded self-splicing fitness (ln) for ACGCAGCAAUAUUACGACUU is 0.0674

The recorded self-splicing fitness (ln) for AUUGAGCAAUAUUACGGCCA is -0.921

The recorded self-splicing fitness (ln) for GUCAAGCAAUAUUACGGCAA is -1.01

The recorded self-splicing fitness (ln) for AAGGAGCAAUAUUACGUGGG is -2.68

The recorded self-splicing fitness (ln) for AAUGAGCAAUAUUACGGUGG is -1.89

The recorded self-splicing fitness (ln) for UCUCAGCAAUAUUACGCUAU is -2.37

The recorded self-splicing fitness (ln) for AGCGAGCAAUAUUACGUUUU is -1.66

The recorded self-splicing fitness (ln) for UCUCAGCAAUAUUACGCGGG is -1.4

The recorded self-splicing fitness (ln) for AUGUAGCAAUAUUACGUGCU is -0.985

The recorded self-splicing fitness (ln) for AGAGAGCAAUAUUACGUGUC is -2.33

The recorded self-splicing fitness (ln) for CAAGAGCAAUAUUACGGCAC is -2.53

The recorded self-splicing fitness (ln) for UUGCAGCAAUAUUACGCGUG is -2.7

The recorded self-splicing fitness (ln) for UGCCAGCAAUAUUACGGGAU is -2.44

The recorded self-splicing fitness (ln) for ACUCAGCAAUAUUACGGAGC is -1.76

The recorded self-splicing fitness (ln) for CAUCAGCAAUAUUACGCGGC is -2.8

The recorded self-splicing fitness (ln) for GAAUAGCAAUAUUACGCUGG is -0.278

The recorded self-splicing fitness (ln) for GGCUAGCAAUAUUACGUAUU is -0.777

The recorded self-splicing fitness (ln) for GAGAAGCAAUAUUACGGGUA is -2.14

The recorded self-splicing fitness (ln) for CGACAGCAAUAUUACGUAUU is -2.53

The recorded self-splicing fitness (ln) for CAAUAGCAAUAUUACGGUGC is -3.67

The recorded self-splicing fitness (ln) for AGACAGCAAUAUUACGAGAG is -2.12

The recorded self-splicing fitness (ln) for GCGCAGCAAUAUUACGAAUG is -0.961

The recorded self-splicing fitness (ln) for CUCAAGCAAUAUUACGCAUC is -2.3

The recorded self-splicing fitness (ln) for ACCAAGCAAUAUUACGUCAU is -1.71

The recorded self-splicing fitness (ln) for CCCGAGCAAUAUUACGUUUA is -2.75

The recorded self-splicing fitness (ln) for UCCGAGCAAUAUUACGGGUU is -1.9

The recorded self-splicing fitness (ln) for AUUCAGCAAUAUUACGGAUG is -0.448

The recorded self-splicing fitness (ln) for UCCCAGCAAUAUUACGGCUU is -1.65

The recorded self-splicing fitness (ln) for UUCAAGCAAUAUUACGUUGC is -3.55

The recorded self-splicing fitness (ln) for AAGUAGCAAUAUUACGAGUA is -1.86

The recorded self-splicing fitness (ln) for CCGAAGCAAUAUUACGUGUG is -0.959

The recorded self-splicing fitness (ln) for CGACAGCAAUAUUACGUAGA is -2.12

The recorded self-splicing fitness (ln) for UCUCAGCAAUAUUACGAGUG is 0.292

The recorded self-splicing fitness (ln) for UUCCAGCAAUAUUACGUUCG is -1.7

The recorded self-splicing fitness (ln) for ACAUAGCAAUAUUACGCUGA is -0.74

The recorded self-splicing fitness (ln) for GAGUAGCAAUAUUACGAUCA is -0.761

The recorded self-splicing fitness (ln) for ACACAGCAAUAUUACGCAUG is -0.692

The recorded self-splicing fitness (ln) for UCACAGCAAUAUUACGUUGU is -2.14

The recorded self-splicing fitness (ln) for CAGCAGCAAUAUUACGACGA is -0.501

The recorded self-splicing fitness (ln) for UAGGAGCAAUAUUACGAGCA is -1.58

The recorded self-splicing fitness (ln) for UUUCAGCAAUAUUACGUUGU is -2.06

The recorded self-splicing fitness (ln) for CUGCAGCAAUAUUACGACAA is -0.88

The recorded self-splicing fitness (ln) for UGCCAGCAAUAUUACGUCGU is -1.9

The recorded self-splicing fitness (ln) for ACAAAGCAAUAUUACGGUGG is -2.07

The recorded self-splicing fitness (ln) for CGCGAGCAAUAUUACGAACU is -0.234

The recorded self-splicing fitness (ln) for ACGGAGCAAUAUUACGUCGU is -2.48

The recorded self-splicing fitness (ln) for CUGAAGCAAUAUUACGCGCA is -2.19

The recorded self-splicing fitness (ln) for UAAAAGCAAUAUUACGACAC is -0.594

The recorded self-splicing fitness (ln) for CCAAAGCAAUAUUACGUCUU is -2.43

The recorded self-splicing fitness (ln) for AUUGAGCAAUAUUACGUUUG is -1.91

The recorded self-splicing fitness (ln) for GGGAAGCAAUAUUACGAUAC is -0.986

The recorded self-splicing fitness (ln) for GCCUAGCAAUAUUACGUCGC is -1.01

The recorded self-splicing fitness (ln) for CGAUAGCAAUAUUACGACUG is 0.803

The recorded self-splicing fitness (ln) for GGUGAGCAAUAUUACGGGGA is -2.42

The recorded self-splicing fitness (ln) for CACUAGCAAUAUUACGAGAA is -1.67

The recorded self-splicing fitness (ln) for CGCAAGCAAUAUUACGCUCC is -1.11

The recorded self-splicing fitness (ln) for GAACAGCAAUAUUACGAUGC is 0.126

The recorded self-splicing fitness (ln) for UAAUAGCAAUAUUACGGUAA is -1.04
